Source: patent US20200000825A1

target: Human Oct 2 (Homo sapiens, UniProt O15244); test: MPP uptake inhibition (transport competition) assay in CHO cells over-expressing a human Oct transporter; conditions: read-out: IC50 (concentration required to inhibit MPP uptake by 50%)
Sequence (O15244 whole entry): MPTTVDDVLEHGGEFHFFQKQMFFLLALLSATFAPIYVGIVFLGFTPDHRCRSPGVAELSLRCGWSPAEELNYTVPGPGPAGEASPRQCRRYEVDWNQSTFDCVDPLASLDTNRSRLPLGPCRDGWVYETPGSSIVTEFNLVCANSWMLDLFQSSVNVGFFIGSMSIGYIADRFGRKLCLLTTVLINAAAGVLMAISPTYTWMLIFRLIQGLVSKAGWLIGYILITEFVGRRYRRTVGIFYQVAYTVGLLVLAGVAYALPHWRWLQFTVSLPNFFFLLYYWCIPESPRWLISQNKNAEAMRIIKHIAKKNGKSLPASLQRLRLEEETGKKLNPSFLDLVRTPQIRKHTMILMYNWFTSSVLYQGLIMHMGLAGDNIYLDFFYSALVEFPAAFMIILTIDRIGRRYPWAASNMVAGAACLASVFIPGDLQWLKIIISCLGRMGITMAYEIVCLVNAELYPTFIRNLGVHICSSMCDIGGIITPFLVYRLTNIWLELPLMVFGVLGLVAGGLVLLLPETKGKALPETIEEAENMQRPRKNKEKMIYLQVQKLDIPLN
pIC50: −log10 of the molar value.
Outcome measure: pIC50

# Compound, Meas value
records = [
    ("CC(C)[C@@H](CC[C@@H](C)[C@H]1CC[C@H]2[C@@H]3[C@H](O)C[C@H]4C[C@@H](NCCCNCCCCN)CC[C@]4(C)[C@H]3CC[C@]12C)OS(=O)(=O)O [Squalamine, squalamine]", 4.30),
]
